Could you please report measured % Change in apolipoprotein B mRNA expression for the items listed next?
Test system: human apolipoprotein B mRNA
assayRemarks: Inhibition of human apolipoprotein B mRNA levels in HepG2 cells, quantitative real-time PCR
Format: cell-based
conditionSet: HepG2 cells; 50 nM; 24 hour (Table 40)
In the oligonucleotide strings, read from the 5' end, every base follows the letter of its sugar. An asterisk marks phosphorothioate; unmarked linkages are phosphodiester. Other units and linkages are bracketed, terminal groups are in braces. A string of capitals states the bases alone. e = 2'-O-(2-methoxyethyl) (MOE); [5mC] = 5-methylcytosine; d = 2'-deoxy (DNA)
Provide only the numeric value, understood in %.

Exam item: Provide one value: measured % Change in apolipoprotein B mRNA expression of 301012 (eG*e[5mC]*e[5mC]*eT*e[5mC]*dA*dG*dT*d[5mC]*dT*dG*d[5mC]*dT*dT*d[5mC]*eG*e[5mC]*eA*e[5mC]*e[5mC]) [compound 301012]
Marked response: −44

Exam item: Provide one value: measured % Change in apolipoprotein B mRNA expression of 332775 (antisense GCCTCATTATTATTATCACC; sugars from the 5' end e5 d10 e5, all phosphorothioate, methylation of C not given here) [compound 332775]
Marked response: −1

Exam item: Provide one value: measured % Change in apolipoprotein B mRNA expression of 332769 (antisense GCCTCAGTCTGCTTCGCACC; all 2'-MOE, all phosphorothioate, methylation of C not given here) [compound 332769]
Marked response: −11

Where these numbers come from: patent US7803930B2
